Hey, just so you know, these numbers are from ChEMBL document CHEMBL3399939.

Recorded inhibition for the following compounds
Organism: Sus scrofa
Protocol Notes: Inhibition of K+-stimulated H(+)/K(+) ATPase in porcine gastric mucosal microsomal fraction assessed as reduction in inorganic phosphate release at 10 uM incubated at 37 degC for 30 mins in presence of ATP by malachine green dye based colorimetry
Assay type: microsomes
Condition Details: Gastric mucosa
Respond numerically; units are % and should not be typed.

The cases that follow already have their inhibition on record.
* CNCc1nc(S(=O)(=O)c2ccccc2)c(-c2ccccc2)s1 | 2
* CNCc1cc(S(=O)(=O)c2ccccc2)c(-c2ccccc2)[nH]1 | 19.8
* CCNc1nc(-c2ccccc2)c(S(=O)(=O)c2ccccc2)s1 | 6.9

Give the measured inhibition for CNc1nc(-c2ccccc2)c(S(=O)(=O)c2ccccc2)s1 3.6

State its inhibition for this compound: CNCc1cc(-c2ccccc2)c(S(=O)(=O)c2ccc(C)cc2)o1 33.2
